# maps each entry to its Activity
# target of assay: Adenosine receptor A2b (Homo sapiens) (UniProt P29275)
# Sequence (whole entry): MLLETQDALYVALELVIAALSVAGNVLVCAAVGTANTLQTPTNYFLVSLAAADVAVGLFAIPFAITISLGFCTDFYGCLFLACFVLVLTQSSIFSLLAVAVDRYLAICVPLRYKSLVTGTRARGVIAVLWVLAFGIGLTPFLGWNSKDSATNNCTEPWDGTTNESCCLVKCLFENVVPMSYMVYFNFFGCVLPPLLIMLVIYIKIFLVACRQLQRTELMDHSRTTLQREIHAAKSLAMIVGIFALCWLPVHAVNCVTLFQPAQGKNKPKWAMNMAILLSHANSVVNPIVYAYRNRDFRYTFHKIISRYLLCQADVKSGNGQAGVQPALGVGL
# test summary: Displacement of [3H]PSB-603 from human A2B receptor expressed in CHO cell membrane at 1 uM relative to control
# Assay type: cell membranes
attribute measured: Activity (%)

| compound | target of assay | attribute measured | result |
| --- | --- | --- | --- |
| Cn1c(=O)c2c(nc3n2CCN(CC(O)c2ccccc2)C3)n(C)c1=O (stereo not drawn) | Adenosine receptor A2b (Homo sapiens) (UniProt P29275) | Activity | 20 |
| Cc1sc(-c2ccc(C(F)(F)F)cc2)nc1CN1CCn2c(nc3c2c(=O)n(C)c(=O)n3C)C1 | Adenosine receptor A2b (Homo sapiens) (UniProt P29275) | Activity | 30 |
| Cn1c(=O)c2c(nc3n2CCN(CCc2cccc(C(F)(F)F)c2)C3)n(C)c1=O | Adenosine receptor A2b (Homo sapiens) (UniProt P29275) | Activity | 12 |

These measurements were taken from ChEMBL document CHEMBL4428125.
